Target entity: KCNQ2/3 channels (Homo sapiens, UniProt O43525+O43526)
Construct: expressed in transfected cells
Sequence (O43526 whole entry): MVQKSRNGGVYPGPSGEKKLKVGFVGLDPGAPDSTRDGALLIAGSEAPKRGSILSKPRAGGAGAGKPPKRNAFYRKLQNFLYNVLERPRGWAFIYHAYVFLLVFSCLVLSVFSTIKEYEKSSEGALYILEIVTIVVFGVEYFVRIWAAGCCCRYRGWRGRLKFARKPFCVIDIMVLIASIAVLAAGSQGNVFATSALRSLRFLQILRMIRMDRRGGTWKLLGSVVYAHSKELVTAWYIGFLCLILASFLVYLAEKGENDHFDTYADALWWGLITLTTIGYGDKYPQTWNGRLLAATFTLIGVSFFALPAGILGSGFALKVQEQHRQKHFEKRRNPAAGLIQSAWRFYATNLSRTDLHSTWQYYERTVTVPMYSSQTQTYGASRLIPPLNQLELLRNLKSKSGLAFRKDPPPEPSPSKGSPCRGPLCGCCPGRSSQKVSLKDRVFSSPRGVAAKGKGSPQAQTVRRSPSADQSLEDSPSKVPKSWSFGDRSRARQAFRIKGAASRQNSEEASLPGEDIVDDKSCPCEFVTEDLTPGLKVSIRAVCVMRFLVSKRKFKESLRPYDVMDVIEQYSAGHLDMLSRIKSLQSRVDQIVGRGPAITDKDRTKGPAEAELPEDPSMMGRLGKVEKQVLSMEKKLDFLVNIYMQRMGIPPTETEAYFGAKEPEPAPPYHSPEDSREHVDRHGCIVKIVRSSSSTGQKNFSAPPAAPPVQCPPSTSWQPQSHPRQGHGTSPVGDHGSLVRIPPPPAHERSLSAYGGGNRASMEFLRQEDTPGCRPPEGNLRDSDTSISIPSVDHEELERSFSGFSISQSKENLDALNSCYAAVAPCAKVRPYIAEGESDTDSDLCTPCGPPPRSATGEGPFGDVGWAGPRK
Sequence (O43525 whole entry): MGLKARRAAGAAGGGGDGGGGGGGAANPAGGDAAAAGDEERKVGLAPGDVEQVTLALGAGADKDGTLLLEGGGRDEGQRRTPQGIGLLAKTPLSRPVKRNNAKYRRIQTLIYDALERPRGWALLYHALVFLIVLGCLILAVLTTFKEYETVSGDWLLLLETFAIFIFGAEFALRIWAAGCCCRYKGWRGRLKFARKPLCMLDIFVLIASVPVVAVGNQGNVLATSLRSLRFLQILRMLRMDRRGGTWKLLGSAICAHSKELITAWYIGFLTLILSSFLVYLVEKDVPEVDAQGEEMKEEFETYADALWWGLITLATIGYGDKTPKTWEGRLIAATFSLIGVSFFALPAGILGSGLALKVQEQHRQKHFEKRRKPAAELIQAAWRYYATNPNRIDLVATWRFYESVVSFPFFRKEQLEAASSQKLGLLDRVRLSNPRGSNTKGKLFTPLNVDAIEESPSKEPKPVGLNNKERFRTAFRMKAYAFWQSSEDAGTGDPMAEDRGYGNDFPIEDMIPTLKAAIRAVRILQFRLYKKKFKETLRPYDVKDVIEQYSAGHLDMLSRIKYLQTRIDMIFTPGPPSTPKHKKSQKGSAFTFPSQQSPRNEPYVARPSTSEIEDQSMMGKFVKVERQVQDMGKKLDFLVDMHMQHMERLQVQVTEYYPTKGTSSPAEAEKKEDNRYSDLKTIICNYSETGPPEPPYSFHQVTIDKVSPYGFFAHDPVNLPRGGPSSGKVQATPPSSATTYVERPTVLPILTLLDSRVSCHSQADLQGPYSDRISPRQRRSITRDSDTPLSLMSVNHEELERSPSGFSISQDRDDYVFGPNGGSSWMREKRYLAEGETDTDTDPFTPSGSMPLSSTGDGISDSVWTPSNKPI
Experimental details: Fluorescence assay using a voltage sensitive dye (fluorimetry)
Format: cell-based
Experimental parameters: CHO-K1, plateau effect relative to saturated retigabine (50 μM) = 100%; CHO-K1 cells expressing KCNQ2/3; negative values = antagonistic; read-out: Fluorimetry % efficacy (retigabine = 100%)
Parameter: Emax (%)
Form entry: value (%) — number only.

{"Compound": "Cc1cc(N2CCOCC2)nc(OCC(F)F)c1C(=O)NCc1ccc(F)cc1 [Example 272]", "Recorded result": 96}
{"Compound": "CCSc1nc(N2CCO[C@H](C)C2)cc(C)c1C(=O)NCCCC(C)(C)C [Example 275]", "Recorded result": 208}
{"Compound": "CCSc1nc(N2CCOC[C@H]2C)cc(C)c1C(=O)NCc1cc(F)cc(F)c1 [Example 233]", "Recorded result": 196}
{"Compound": "CCSc1nc(N2CCOCC2)cc(C)c1C(=O)NCc1cccc(F)n1 [Example 45]", "Recorded result": 151}
{"Compound": "CCSc1nc(N2CCOCC2)cc(C)c1C(=O)NCCC(O)C(C)(C)C (stereo not drawn) [Example 267]", "Recorded result": 223}
{"Compound": "Cc1cc(N2CCOCC2)nc(C(C)C)c1C(=O)NCc1ccc(C(F)(F)F)cc1 [Example 311]", "Recorded result": 146}

For this compound ( CCSc1nc(N2CCc3ccccc32)cc(C)c1C(=O)NCc1cccc(F)c1 [Example 305] ), measured Emax is 57

Consider CCSc1nc(N2CCOCC2)cc(C)c1C(=O)NCCOC(C)C [Example 103] . Its measured Emax is 142

Form: compound = CCCCNC(=O)c1c(C)cc(N2CCOCC2)nc1SCC [Example 80] ; Emax = 147

###

Target entity: KCNQ2/3 channels (Homo sapiens, UniProt O43525+O43526)
Construct: expressed in transfected cells
Experimental details: Fluorescence assay using a voltage sensitive dye (fluorimetry)
Assay type: cell-based
Experimental parameters: CHO-K1, plateau effect relative to saturated retigabine (50 μM) = 100%; CHO-K1 cells expressing KCNQ2/3; negative values = antagonistic; read-out: Fluorimetry % efficacy (retigabine = 100%)
Description: Method I. Fluorescence Assay Using a Voltage Sensitive Dye (Fluorimetry) These voltage-sensitive dyes are fluorescent dyes and, therefore, are forming the link between cell potential influenced by KCNQ modulation and fluorescence intensity. A KCNQ agonist leads to an opening of the channel, potassium and dye efflux, a following hyperpolarization and a reduction of the inner fluorescence intensity in a kinetic protocol. […] The cell number is determined using a CASY™ cell counter (TCC, Schärfe System). […]
Parameter: Emax (%)
The reply should be a number in %, with the unit left off.

As a guide, the following entries are already answered.
{"Compound": "CCSc1nc(N2CCC(C)(C)CC2)cc(C)c1C(=O)NCc1cccc(F)c1", "Emax, %": 70}
{"Compound": "CCSc1nc(N2CCOCC2)cc(C)c1C(=O)NCc1ccccc1", "Emax, %": 162}
{"Compound": "CSc1nc(N2CCOCC2)cc(C)c1C(=O)NCCCC(F)(F)F", "Emax, %": 210}
{"Compound": "CCSc1nc(N2CCOC(CCOC)C2)cc(C)c1C(=O)NCc1cccc(F)c1 (stereo not drawn)", "Emax, %": 132}
{"Compound": "CCSc1nc(N(C)C2CCCOC2)cc(C)c1C(=O)NCc1cccc(F)c1 (stereo not drawn)", "Emax, %": 96}
{"Compound": "CSc1nc(N2CCOCC2)cc(C)c1C(=O)NCc1cccc(F)c1", "Emax, %": 168}
{"Compound": "CCSc1nc(N(C)CC2CCOCC2)cc(C)c1C(=O)NCc1cccc(F)c1", "Emax, %": 110}
{"Compound": "CCSc1nc(N2CCOC(C)C2)cc(C)c1C(=O)NCc1cccc(F)c1 (racemic)", "Emax, %": 145}
{"Compound": "COc1nc(N2CCOC[C@H]2C)cc(C)c1C(=O)NCc1ccc(F)cc1", "Emax, %": 167}
{"Compound": "Cc1cc(N2CCOCC2)nc(N(C)C)c1C(=O)NCc1cccc(F)c1", "Emax, %": 238}

Briefly, Emax measured for `CCSc1nc(N2CCOCC2)cc(C)c1C(=O)NCCCc1cccnc1` : 126

Record summary for `CCSc1nc(N2CCOC[C@H]2C)cc(C)c1C(=O)NCc1ccc(F)c(F)c1` : reported Emax = 173

For this compound ( `CCSc1nc(N(C)CCCOC)cc(C)c1C(=O)NCc1cccc(F)c1` ), measured Emax is 142
